Data provenance is ChEMBL document CHEMBL5038626.

Listing of entries alongside the reported pIC50.
# Measured target: Topoisomerase IV (Staphylococcus aureus, UniProt P0C1S7+P0C1U9)
# Sequence (P0C1U9 whole entry): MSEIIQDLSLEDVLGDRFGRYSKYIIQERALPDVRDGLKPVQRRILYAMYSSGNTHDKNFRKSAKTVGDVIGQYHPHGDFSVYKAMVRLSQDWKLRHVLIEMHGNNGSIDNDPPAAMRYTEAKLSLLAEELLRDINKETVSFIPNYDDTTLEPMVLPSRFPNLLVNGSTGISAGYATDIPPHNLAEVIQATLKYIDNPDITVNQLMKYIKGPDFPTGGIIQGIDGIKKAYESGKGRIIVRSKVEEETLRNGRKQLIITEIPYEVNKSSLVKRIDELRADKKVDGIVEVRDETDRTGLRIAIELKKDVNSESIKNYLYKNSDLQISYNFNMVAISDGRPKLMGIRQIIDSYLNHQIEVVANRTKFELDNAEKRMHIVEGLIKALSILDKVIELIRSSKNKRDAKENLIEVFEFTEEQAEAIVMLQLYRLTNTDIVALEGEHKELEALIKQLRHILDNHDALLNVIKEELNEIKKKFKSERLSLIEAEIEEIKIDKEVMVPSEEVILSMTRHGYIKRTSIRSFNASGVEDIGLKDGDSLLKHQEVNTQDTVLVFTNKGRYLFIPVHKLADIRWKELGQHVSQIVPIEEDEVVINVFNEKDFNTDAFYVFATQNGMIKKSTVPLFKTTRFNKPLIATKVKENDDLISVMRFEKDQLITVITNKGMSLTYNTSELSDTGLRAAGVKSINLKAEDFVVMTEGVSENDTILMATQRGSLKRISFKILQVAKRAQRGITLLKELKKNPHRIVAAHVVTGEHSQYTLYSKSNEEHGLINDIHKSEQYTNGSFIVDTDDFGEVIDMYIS
# Sequence (P0C1S7 whole entry): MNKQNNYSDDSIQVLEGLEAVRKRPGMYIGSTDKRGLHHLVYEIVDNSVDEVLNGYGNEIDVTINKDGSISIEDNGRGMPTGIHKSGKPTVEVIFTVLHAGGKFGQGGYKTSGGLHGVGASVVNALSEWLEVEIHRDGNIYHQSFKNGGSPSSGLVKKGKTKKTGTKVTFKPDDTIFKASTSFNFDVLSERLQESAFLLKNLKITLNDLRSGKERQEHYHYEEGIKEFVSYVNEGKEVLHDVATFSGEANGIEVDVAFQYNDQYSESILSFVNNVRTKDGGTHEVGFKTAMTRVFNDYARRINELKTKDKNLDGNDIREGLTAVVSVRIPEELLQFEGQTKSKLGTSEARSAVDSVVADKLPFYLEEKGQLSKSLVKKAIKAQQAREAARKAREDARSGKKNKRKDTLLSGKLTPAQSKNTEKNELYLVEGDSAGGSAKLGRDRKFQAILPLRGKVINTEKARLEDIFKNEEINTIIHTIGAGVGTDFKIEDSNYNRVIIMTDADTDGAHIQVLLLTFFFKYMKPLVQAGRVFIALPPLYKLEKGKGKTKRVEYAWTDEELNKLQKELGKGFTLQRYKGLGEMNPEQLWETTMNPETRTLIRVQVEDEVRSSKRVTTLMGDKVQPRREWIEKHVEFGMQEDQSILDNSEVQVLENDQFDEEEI
# Protocol summary: Inhibition of Staphylococcus aureus topoisomerase 4 assessed as reduction in decatenation using kDNA as substrate incubated for 30 mins by fluorimetric assay
Give only the number. pIC50 is defined as minus log10 of concentration in molar units.

Guide cases for pIC50, answers given:
O=C(CCN1CCN(c2cc3c(cc2F)c(=O)c(C(=O)O)cn3C2CC2)CC1)Nc1ccc(S(=O)(=O)Nc2cncc(Cl)n2)cc1 | 6.36
O=C(CCN1CCN(c2cc3c(cc2F)c(=O)c(C(=O)O)cn3C2CC2)CC1)Nc1ccc(S(=O)(=O)Nc2cnc3ccccc3n2)cc1 | 6.64
O=C(O)c1cn(C2CC2)c2cc(N3CCN(/N=N/c4ccc(S(=O)(=O)Nc5cncc(Cl)n5)cc4)CC3)c(F)cc2c1=O | 4.89
O=C(O)c1cn(C2CC2)c2cc(N3CCN(/N=N/c4ccc(S(=O)(=O)Nc5ncccn5)cc4)CC3)c(F)cc2c1=O | 5.02

We now examine a further compound.
What value of measured pIC50 is listed for Cc1cc(NS(=O)(=O)c2ccc(NC(=O)C(C)N3CCN(c4cc5c(cc4F)c(=O)c(C(=O)O)cn5C4CC4)CC3)cc2)no1 (stereo not given) ? 6.41
